From: the supplement of paper PMC10307832

Test system: UMC-11
Assay: relative viability (nuclei count vs DMSO), 5 days (fraction); higher = more cells survive
Conditions: first compound 0.1 µM
measured metric: relative viability
Numbers only.

Solved cases (2 shown):
- compound: "Cc1cn(-c2cc(NC(=O)c3ccc(C)c(Nc4nccc(-c5cccnc5)n4)c3)cc(C(F)(F)F)c2)cn1 [Nilotinib] + Cc1cc(Nc2cc(N3CCN(C)CC3)nc(Sc3ccc(NC(=O)C4CC4)cc3)n2)n[nH]1 [Tozasertib] (partner 0.1 µM)"
  relative viability: 0.134
- compound: "Cc1cn(-c2cc(NC(=O)c3ccc(C)c(Nc4nccc(-c5cccnc5)n4)c3)cc(C(F)(F)F)c2)cn1 [Nilotinib] + O=C(c1cc(Cc2n[nH]c(=O)c3ccccc23)ccc1F)N1CCN(C(=O)C2CC2)CC1 [Olaparib] (partner 8 µM)"
  relative viability: 0.279

For each entry beneath this line, provide reported relative viability.
1. Cc1cn(-c2cc(NC(=O)c3ccc(C)c(Nc4nccc(-c5cccnc5)n4)c3)cc(C(F)(F)F)c2)cn1 [Nilotinib] + Nc1ncn([C@H]2C[C@H](O)[C@@H](CO)O2)c(=O)n1 [Decitabine] (partner 2 µM)
2. Cc1cn(-c2cc(NC(=O)c3ccc(C)c(Nc4nccc(-c5cccnc5)n4)c3)cc(C(F)(F)F)c2)cn1 [Nilotinib] + CS(=O)(=O)N1CCN(Cc2cc3nc(-c4cccc5[nH]ncc45)nc(N4CCOCC4)c3s2)CC1 [Pictilisib] (partner 1 µM)

1: 0.622; 2: 0.287

###

Test system: NCI-H2405
Assay: relative viability (nuclei count vs DMSO), 5 days (fraction); higher = more cells survive
Conditions: first compound 6.325 µM
measured metric: relative viability
Answers are plain numbers.

- compound: "Cc1csc(=NC2CCCCC2)n1/N=C/c1ccc(O)c(O)c1O [MIM1] + Cc1nc(Nc2ncc(C(=O)Nc3c(C)cccc3Cl)s2)cc(N2CCN(CCO)CC2)n1 [Dasatinib] (partner 0.075 µM)"
  relative viability: 0.205

Working through the 2 compounds below one at a time, give relative viability for each.
1. Cc1csc(=NC2CCCCC2)n1/N=C/c1ccc(O)c(O)c1O [MIM1] + CC(C)C[C@H](NC(=O)[C@H](Cc1ccccc1)NC(=O)c1cnccn1)B(O)O [Bortezomib] (partner 0.002 µM)
2. Cc1csc(=NC2CCCCC2)n1/N=C/c1ccc(O)c(O)c1O [MIM1] + COc1cccc2cc(-c3nc([C@H]4CC[C@H](C(=O)O)CC4)n4ncnc(N)c34)[nH]c12 [OSI-027] (partner 0.5 µM)

[0.788, 0.553]

###

Test system: NCI-H520
Assay: relative viability (nuclei count vs DMSO), 5 days (fraction); higher = more cells survive
Conditions: first compound 8 µM
I'd be grateful if you could share measured relative viability for these entries.
Answers are plain numbers.

Would you please look over these solved cases?
- compound: "Nc1cccc2c1CN(C1CCC(=O)NC1=O)C2=O (stereo not drawn) [Lenalidomide] + CC(=O)c1c(C)c2cnc(Nc3ccc(N4CCNCC4)cn3)nc2n(C2CCCC2)c1=O [Palbociclib] (partner 0.5 µM)"
  tgt: "NCI-H520"
  relative viability: 0.2
- compound: "Nc1cccc2c1CN(C1CCC(=O)NC1=O)C2=O (stereo not drawn) [Lenalidomide] + Nc1nc2[nH]cc(CCc3ccc(C(=O)N[C@@H](CCC(=O)O)C(=O)O)cc3)c2c(=O)[nH]1 [Pemetrexed] (partner 0.2 µM)"
  tgt: "NCI-H520"
  relative viability: 0.689

Now examine the next entry.
Lab note: measured relative viability of Nc1cccc2c1CN(C1CCC(=O)NC1=O)C2=O (stereo not drawn) [Lenalidomide] + CC(=O)Nc1cccc(-n2c(=O)n(C3CC3)c(=O)c3c(Nc4ccc(I)cc4F)n(C)c(=O)c(C)c32)c1 [Trametinib] (partner 0.02 µM) was 0.452
